system: Pseudomonas cepacia 296I; assay: In vitro antibacterial activity (MIC, agar dilution); format: cell-based; settings: Burkholderia cepacia
MEASURED METRIC: MIC (µg/mL)
Quick reminder: number only, in µg/mL, skip the unit.

Value of measured MIC for the entry O=C(O)c1cn(C2CC2)c2cc(N3CCNCC3)c(F)cc2c1=O [Ciprofloxacin, ciprofloxacin, reference compound] : 3.1

"O=C(O)c1cc2c3c(c(N4CCOCC4)c(F)cn3c1=O)Oc1ccccc1-2" yielded MIC of 100

###

Would you mind telling me the reported MIC of each entry?
Structures can show the parent of a compound that is named as a salt.
Your answer should be a plain number; it is taken to be in µg/mL.

Per the reported Strep. pyogenes 930 CONST data, O=C(O)c1cc2c3c(c(N4CCOCC4)c(F)cn3c1=O)Oc1ccccc1-2 [Example 1] has MIC of 6.2

MIC on Strep. pyogenes 930 CONST for O=C(O)c1cn(C2CC2)c2cc(N3CCNCC3)c(F)cc2c1=O [Ciprofloxacin, ciprofloxacin, reference compound] is 0.78

Sample N[C@H]1CCC[C@H]2CN(c3c(F)cn4c(=O)c(C(=O)O)cc5c4c3Oc3ccccc3-5)C[C@H]21 (relative stereo) [Example 3, hydrochloride] , system: Strep. pyogenes 930 CONST. Its MIC is 0.2

// MIC (Strep. pyogenes 930 CONST) for NC1CCN(c2c(F)cn3c(=O)c(C(=O)O)cc4c3c2Oc2ccccc2-4)C1 (stereo not shown) [Example 2, hydrochloride] = 3.1

###

Counter-ions that a name gives are not always drawn.
MEASURED METRIC: MIC (µg/mL)
Provide the reading as a plain figure in µg/mL.

The measured MIC that "O=C(O)c1cc2c3c(c(N4CCOCC4)c(F)cn3c1=O)Oc1ccccc1-2" showed for Strep. agalactiae CMX 508 is 3.1

Response field MIC (Strep. agalactiae CMX 508) for item O=C(O)c1cn(C2CC2)c2cc(N3CCNCC3)c(F)cc2c1=O [Ciprofloxacin, ciprofloxacin, reference compound] : 0.39

With Strep. agalactiae CMX 508 as the test system, N[C@H]1CCC[C@H]2CN(c3c(F)cn4c(=O)c(C(=O)O)cc5c4c3Oc3ccccc3-5)C[C@H]21 (relative stereo) [Example 3, hydrochloride] showed MIC of 0.39

The reported MIC value, Strep. agalactiae CMX 508, for NC1CCN(c2c(F)cn3c(=O)c(C(=O)O)cc4c3c2Oc2ccccc2-4)C1 (stereo not shown) [Example 2, hydrochloride] reads 3.1

###

Structures can show the parent of a compound that is named as a salt.
MEASURED METRIC: MIC (µg/mL)
Provide only the numeric value, understood in µg/mL.

Measured MIC (Providencia stuartii CMX 640), entry N[C@H]1CCC[C@H]2CN(c3c(F)cn4c(=O)c(C(=O)O)cc5c4c3Oc3ccccc3-5)C[C@H]21 (relative stereo) [Example 3, hydrochloride] : 100

// assay Providencia stuartii CMX 640, entry O=C(O)c1cn(C2CC2)c2cc(N3CCNCC3)c(F)cc2c1=O [Ciprofloxacin, ciprofloxacin, reference compound] , MIC value = 0.78

###

tested on: Staph. aureus NCTC10649
Counter-ions that a name gives are not always drawn.
For each entry below, report its MIC value.

For this compound ( NC1CCN(c2c(F)cn3c(=O)c(C(=O)O)cc4c3c2Oc2ccccc2-4)C1 (stereo not shown) [Example 2, hydrochloride] ), measured MIC is 3.1 µg/mL

MIC reported for this compound "O=C(O)c1cc2c3c(c(N4CCOCC4)c(F)cn3c1=O)Oc1ccccc1-2" : 0.39 µg/mL

According to the records, this compound O=C(O)c1cn(C2CC2)c2cc(N3CCNCC3)c(F)cc2c1=O [Ciprofloxacin, ciprofloxacin, reference compound] displays MIC of 0.39 µg/mL

Record N[C@H]1CCC[C@H]2CN(c3c(F)cn4c(=O)c(C(=O)O)cc5c4c3Oc3ccccc3-5)C[C@H]21 (relative stereo) [Example 3, hydrochloride] . Reported MIC: 0.78 µg/mL

meta.source: patent US5618813A
